Target: T1, murine PCSK-9 (murine, UniProt Q80W65 35-694)
T1 construct: also called mouse PCSK9
Assay: BLI (ForteBio), IgG on AHQ sensor, 100 nM antigen

[
  {
    "binder": "Bococizumab (antibody, V domains shown) VH: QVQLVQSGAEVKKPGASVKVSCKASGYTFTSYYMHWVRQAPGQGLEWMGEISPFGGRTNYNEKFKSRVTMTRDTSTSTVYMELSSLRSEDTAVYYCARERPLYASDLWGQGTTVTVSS VL: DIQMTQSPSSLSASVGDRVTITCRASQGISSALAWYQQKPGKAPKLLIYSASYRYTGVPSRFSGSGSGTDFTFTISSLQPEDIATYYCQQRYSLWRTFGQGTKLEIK",
    "Kd [nM]": 0.663
  },
  {
    "binder": "ADI-10088 (antibody, human IgG2, kappa, V domains shown, IgG) VH: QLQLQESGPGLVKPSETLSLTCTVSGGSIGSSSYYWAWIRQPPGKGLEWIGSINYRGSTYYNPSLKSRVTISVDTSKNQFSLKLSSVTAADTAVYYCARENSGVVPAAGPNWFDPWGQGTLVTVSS VL: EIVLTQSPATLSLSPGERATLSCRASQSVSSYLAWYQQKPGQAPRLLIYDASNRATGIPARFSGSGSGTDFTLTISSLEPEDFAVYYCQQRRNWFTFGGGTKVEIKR",
    "Kd [nM]": 0.855
  },
  {
    "binder": "ADI-10086 (antibody, human IgG2, kappa, V domains shown, IgG) VH: QLQLQESGPGLVKPSETLSLTCTVSGGSIRSSAYYWGWIRQPPGKGLEWIGSINYRGSTYYNPSLKSRVTISVDTSKNQFSLKLSSVTAADTAVYYCARENSGVVPAAGPNWFGPWGQGTLVTVSS VL: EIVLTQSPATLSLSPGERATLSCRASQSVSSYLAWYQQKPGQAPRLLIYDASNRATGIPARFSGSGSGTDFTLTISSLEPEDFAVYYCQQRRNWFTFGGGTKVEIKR",
    "Kd [nM]": 0.607
  },
  {
    "binder": "ADI-10089 (antibody, human IgG2, kappa, V domains shown, IgG) VH: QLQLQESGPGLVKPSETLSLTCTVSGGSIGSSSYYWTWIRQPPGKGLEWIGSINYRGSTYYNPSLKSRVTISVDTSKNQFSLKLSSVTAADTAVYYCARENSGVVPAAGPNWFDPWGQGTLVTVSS VL: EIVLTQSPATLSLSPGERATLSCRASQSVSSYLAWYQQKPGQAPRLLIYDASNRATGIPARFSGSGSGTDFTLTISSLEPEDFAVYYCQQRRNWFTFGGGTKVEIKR",
    "Kd [nM]": 0.589
  }
]

All values here come from patent US20200087416A1.
